EC50 for assorted binders
biological target: Claudin18.2-His protein (human); assay: indirect ELISA on coated Claudin18.2-His
The reply should contain only the number, in µg/mL.

Recorded EC50, per entry:
• 420H3H9 (antibody, V domains shown) VH: DVQLVESGGGLVQPGGSRKLSCAASGFTFSSFGMHWVRQAPEKGLEWVAYISSGSSTIYYAHSVKGRFTISRDNPKNTLFLQMTSLGSEDTAMYYCARFYYGNSFAYWGQGTLVTVSA VL: DIVMTQSPSSLTVTAGEKVTLSCKSSQSLLNSGNQKNYLTWYQQKPGQPPKMLIYWASTRESGVPDRFTGSGSGTDFTLTISSVQAEDLADYYCQNAYTYPLTFGAGTRLELK = 0.00722
• 260G9E8 (antibody, V domains shown) VH: QADLQQSGAELVRSGASVKMSCKASGYTFASHNMHWVKQTPGQGLEWIGYIYPGNGGTKYNQKFTGKATLTADTSSSTAYMQITSLTSEDSAVYFCARDYYGNSFAYWGQGTLVTVSA VL: DIVMTQSPSSLTEKAGEKVSMRCKSSQSLLNSGNQKNYLTWYQQKPGQPPKLLIYWASTRESGVPDRFTGSGSGTDFTLTISSVQADDLAVYYCQNDYMFPFTFGAGTKLELK = 0.0358
• 242F5H2 (antibody, V domains shown) VH: EVMLVESGGGLVKPGGSLKLSCAASGFTFSSYTVSWVRQTPEKRLEWVATSIVGSTYTYFPDSVKGRFTISRDFAKNTLFLQMSSLRSEDTAMYYCSRLGRGNAMDYWGQGTSVSVSS VL: DIVMTQSPSSLTVTAGEKVTLNCRSSQSLLNSGNQKNYLTWYQQKPGQPPKLLIYWASTRESGVPDRFTGSGSGTDFTLTISSVQADDLAVYYCQNGYSYPFTFGSGTKLEIK = 0.0193

Would you mind telling me what EC50 value was observed for 257G7B9 (antibody, V domains shown) VH: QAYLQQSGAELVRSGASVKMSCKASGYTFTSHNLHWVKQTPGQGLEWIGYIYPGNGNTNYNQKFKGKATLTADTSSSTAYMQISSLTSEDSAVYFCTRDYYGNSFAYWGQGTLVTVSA VL: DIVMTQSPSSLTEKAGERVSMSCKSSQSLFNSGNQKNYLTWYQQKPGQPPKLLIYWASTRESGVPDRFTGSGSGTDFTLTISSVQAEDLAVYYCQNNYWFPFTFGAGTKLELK ?
0.00978

Would you mind telling me what EC50 value was observed for 273C10E5 (antibody, V domains shown) VH: QVQLQQSGAELVKPGASVKLSCKASGYTFTSFGINWLRQRPEQGLEWIGWIFPGDGNSKYNENFKGKATLTTDKSSSTAYMQVTRLTSEDSAVYFCARFYYGNSFANWGQGTLVTVSA VL: DIVMTQSPSSLTVTAGEKVTMSCKSSQSLLNSGNQKNYLTWYQQKPGQPPKLLIYWAATRESGVPDRFAGSGSGTDFTLTISSVQAEDLAVYYCQNDYFYPFTFGAGTKLELK ?
0.0201

Data credit: patent US20220073643A1
